# Tested on: TNF-alpha production in LPS stimulated human peripheral blood mononuclear cells (PBMCs)
# measurementNotes: Inhibition on TNF-alpha Production in Human Mononuclear Cells
# Format: cell-based
# experimentalConditions: PBMC, LPS 1 μg/mL, 24 hours, TNF-alpha by ELISA, read-out: IC50, TNF-alpha production from stimulated PBMCs
pIC50: −log10 of the molar value.
measuredProperty: pIC50

1. CCc1ccc2c(-c3ccc(C(N)=O)cc3)c(CCCCCC(=O)O)c(C)nn12 = > 7.00

====

# system: U937 Phosphodiesterase IV (PDE IV)
# measurementNotes: Inhibition of U937 Phosphodiesterase IV (PDE IV)
# experimentalConditions: enzyme preparation from U937 cells, [3H]cAMP SPA assay, CI-930 10 μM added, 30° C. 15 minutes; read-out: IC50, inhibitory activity on PDE-IV
measuredProperty: IC50

1. CCc1ccc2c(-c3ccc(C(N)=O)cc3)c(CCCCCC(=O)O)c(C)nn12 = < 1000 nM

====

measuredProperty: melting point

1. CCc1ccc2c(-c3cccc(C#N)c3)c(CCCCC(=O)N3CCOCC3)c(-c3ccccc3)nn12 = 66 to 69 °C
2. CCc1ccc2c(-c3cccc(Cl)c3)c(CCCCC(=O)NC)c(-c3ccccc3)nn12 = 70 to 72 °C
3. CCc1ccc2c(-c3cccc(C#N)c3)c(CCCCC(=O)Nc3ccccn3)c(-c3ccccc3)nn12 = 67 to 70 °C
4. CCc1ccc2c(-c3cncc(Br)c3)c(CCC(=O)NS(C)(=O)=O)c(C)nn12 = 196.5 to 197.5 °C
5. CCc1ccc2c(-c3cncc(Br)c3)c(CCC(=O)NC)c(C)nn12 = 172 to 174 °C
6. CCc1ccc2c(-c3cncc(Cl)c3)c(CCC(=O)O)c(COC)nn12 = 159 to 160 °C
7. CCc1ccc2c(-c3cncc(Br)c3)c(CCC(=O)O)c(C)nn12 = 181 to 182 °C
8. CCc1ccc2c(-c3cncc(Br)c3)c(CCC(=O)N3CCOCC3)c(C)nn12 = 178 to 180 °C
9. CCc1ccc2c(-c3cccc(Cl)c3)c(C#N)c(-c3ccccc3)nn12 = 172 to 173 °C
10. CCc1ccc2c(-c3cncc(OC)c3)c(CCCC(=O)O)c(COC)nn12 = 140 to 141 °C
11. CCc1ccc2c(-c3cncc(Br)c3)c(C(=O)OC)c(COC(C)=O)nn12 = 122 to 123 °C
12. CCc1ccc2c(-c3cccc(C#N)c3)c(CCCCC(=O)NC)c(-c3ccccc3)nn12 = 60 °C
13. CCc1ccc2c(-c3cncc(Cl)c3)c(CCCCC(=O)O)c(COC)nn12 = 118 to 119 °C
14. CCOC(=O)CC(=O)Cc1c(C)nn2c(Cl)ccc2c1-c1ccc(F)cc1 = 116 to 118 °C
15. CCc1ccc2c(-c3cccc(Cl)c3)c(CCCCC(=O)N3CCOCC3)c(-c3ccccc3)nn12 = 55 to 58 °C
16. CCc1ccc2c(-c3cccc(C#N)c3)c3c(nn12)CCC3=O = 150 to 154 °C
17. CCc1ccc2c(-c3cncc(Br)c3)c(CCCCC(=O)NS(C)(=O)=O)c(C)nn12 = 124 to 125 °C
